Give measured IC50 for each item. Keep answers brief.
assayed.system: CBL-B (Homo sapiens, UniProt Q13191)
Construct: GST
Sequence (Q13191 whole entry): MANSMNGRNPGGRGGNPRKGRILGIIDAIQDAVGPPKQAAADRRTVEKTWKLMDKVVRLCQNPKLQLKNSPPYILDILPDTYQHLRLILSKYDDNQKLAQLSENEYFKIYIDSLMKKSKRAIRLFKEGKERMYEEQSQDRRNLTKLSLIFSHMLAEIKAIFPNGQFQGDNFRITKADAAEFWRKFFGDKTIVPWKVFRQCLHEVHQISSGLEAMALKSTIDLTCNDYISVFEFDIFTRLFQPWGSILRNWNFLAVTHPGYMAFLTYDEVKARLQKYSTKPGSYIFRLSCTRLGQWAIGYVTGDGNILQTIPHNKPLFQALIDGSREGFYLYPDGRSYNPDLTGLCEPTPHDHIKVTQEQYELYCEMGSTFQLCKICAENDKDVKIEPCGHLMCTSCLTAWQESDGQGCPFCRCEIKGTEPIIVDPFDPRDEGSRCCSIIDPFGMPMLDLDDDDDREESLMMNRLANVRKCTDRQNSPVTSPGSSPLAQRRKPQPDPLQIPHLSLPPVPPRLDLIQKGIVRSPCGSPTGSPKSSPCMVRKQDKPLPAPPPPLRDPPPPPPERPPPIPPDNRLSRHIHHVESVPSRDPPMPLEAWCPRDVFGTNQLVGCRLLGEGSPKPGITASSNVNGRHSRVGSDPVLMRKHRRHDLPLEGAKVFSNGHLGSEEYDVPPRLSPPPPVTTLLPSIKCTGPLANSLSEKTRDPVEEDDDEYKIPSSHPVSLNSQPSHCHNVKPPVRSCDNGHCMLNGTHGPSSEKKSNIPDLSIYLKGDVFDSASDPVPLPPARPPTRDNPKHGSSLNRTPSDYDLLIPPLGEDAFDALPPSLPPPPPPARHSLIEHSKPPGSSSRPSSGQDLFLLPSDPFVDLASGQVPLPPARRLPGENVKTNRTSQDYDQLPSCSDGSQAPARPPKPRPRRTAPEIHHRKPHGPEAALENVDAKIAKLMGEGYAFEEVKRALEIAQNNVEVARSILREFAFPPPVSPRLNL
measurement.description: CBL-B TR-FRET IC50 screening (E1/E2 ubiquitination, Biotin-Ubiquitin, Anti GST-Tb donor / Streptavidin-d2 acceptor)
Type: biochemical
experimental.conditions: CBL-B 10 nM final; 11-point titration from 100 uM; binned A-F; read-out: CBL-B TR-FRET activity IC50

For orientation, consider the following solved cases.
1) Cn1cnnc1[C@]1(c2cccc(-n3cc4c(C(F)(F)F)cc(CN5CCc6ncsc6C5)cn4c3=O)c2)C[C@H](C)C1 (single isomer, unassigned) :: < 100 nM
2) CC(=O)NCc1cc(C(F)(F)F)c2cn(-c3cccc(C4(Cc5nncn5C)COC4)c3)c(=O)n2c1 :: 100 to 300 nM
3) COc1cc(-n2cc3c(C(F)(F)F)cc(Br)cn3c2=O)cc(C2(Cc3nncn3C)COC2)c1 :: 100 to 300 nM

Parameters: items (list). Returns: IC50 for each item.
1. CC(c1cc(C(F)(F)F)c2cn(-c3cccc(C4(Cc5nncn5C)COC4)c3)c(=O)n2c1)N1CCC[C@H](C)C1 (single isomer, unassigned) [Compound 120]
2. C[C@H]1CCCN(Cc2cc(C(F)(F)F)c3cn(-c4cccc([C@H](c5nncn5C)C5CCC5)c4)c(=O)n3c2)C1
3. [2H]C([2H])([2H])n1cnnc1[C@@H](c1cccc(-n2cc3c(C(F)(F)F)cc(CN4CCC[C@H](C)C4)cn3c2=O)c1)C1CCC1 (single isomer, unassigned)
4. Cn1cnnc1[C@H](c1cccc(-n2cc3c(C(F)(F)F)cc(CN4CC[C@H](C#N)C4)cn3c2=O)c1)C1CCC1 (single isomer, unassigned)
5. Cn1cnnc1[C@]1(c2cccc(-n3cc4c(C(F)(F)F)cc(C#N)cn4c3=O)c2)C[C@H](C)C1

< 100 nM
< 100 nM
< 100 nM
3000 to 10000 nM
100 to 300 nM

Below are some molecules; for each one, tell me its IC50.
1. Cn1cnnc1C1(c2cccc(-n3cc4c(C(F)(F)F)cc(Br)cn4c3=O)c2)CC2(CC2)C1
2. Cn1cnnc1CC1(c2cccc(-n3cc4c(C(F)(F)F)cc(CN5CC[C@@H](C#N)C5)cn4c3=O)c2)COC1
3. CN1CC2CCC(C1)N2c1cc(C(F)(F)F)c2cn(-c3cccc(C4(Cc5nncn5C)COC4)c3)c(=O)n2c1
4. Cn1cnnc1[C@@H](c1cccc(-n2cc3c(C(F)(F)F)cc(-c4nncs4)cn3c2=O)c1)C1CCC1
5. Cn1cnnc1CC(c1cccc(-n2cc3c(C(F)(F)F)cccn3c2=O)c1)n1cccn1 (stereo not shown)

100 to 300 nM
< 100 nM
100 to 300 nM
301 to 1000 nM
> 10000 nM
